Tested on: Jurkat
Assay: cell count relative to DMSO control (fraction of control); higher = more cells (less growth inhibition)
Details: 48 h
Structures can show the parent of a compound that is named as a salt.
property label: cell count
Answers are plain numbers.

Use the examples below as a reference point.
compound	cell count
COc1c2occc2cc2ccc(=O)oc12 [Methoxsalen (Xanthotoxin)] (concentration: 25 µM)	0.761
COC(=O)C1=C(C)NC(C)=C(C(=O)OCCN(C)Cc2ccccc2)C1c1cccc([N+](=O)[O-])c1 (stereo not given) [Nicardipine·HCl] (concentration: 25 µM)	0.568
CC[C@H]1OC(=O)[C@H](C)[C@@H](O[C@H]2C[C@@](C)(OC)[C@@H](O)[C@H](C)O2)[C@H](C)[C@@H](O[C@@H]2O[C@H](C)C[C@H](N(C)C)[C@H]2O)[C@](C)(O)C[C@@H](C)C(=O)[C@H](C)[C@@H](O)[C@]1(C)O [Erythromycin] (concentration: 25 µM)	0.871
CN[C@H](CC(C)C)C(=O)N[C@H]1C(=O)N[C@@H](CC(N)=O)C(=O)N[C@H]2C(=O)N[C@H]3C(=O)N[C@H](C(=O)N[C@H](C(=O)O)c4cc(O)cc(O)c4-c4cc3ccc4O)[C@H](O)c3ccc(c(Cl)c3)Oc3cc2cc(c3O[C@@H]2O[C@H](CO)[C@@H](O)[C@H](O)[C@H]2O[C@H]2C[C@](C)(N)[C@H](O)[C@H](C)O2)Oc2ccc(cc2Cl)[C@H]1O [Vancomycin·HCl] (concentration: 25 µM)	1.19

Here is the next item to consider.
Can you look up the measured cell count of Cc1nnc(SCC2=C(C(=O)O)N3C(=O)[C@@H](NC(=O)Cn4cnnn4)[C@H]3SC2)s1 [Cefazolin·Na] (concentration: 25 µM) for me?
0.768
